experiment: Selectivity ratio of IC50 for antiproliferative activity against human L02 cells to IC50 for antiproliferative activity human HepG2 cells; type: toxicity, cell-based; settings: L02 cells and HepG2 cells, read-out: Ratio IC50
EXPERIMENTAL_READOUT: selectivity ratio
API note: the answer field is a bare number with no unit suffix.

Measured selectivity ratio of C=CCc1ccc(O)c(-c2ccc(OCCCCCc3c4[n+](cc5c(OC)c(OC)ccc35)CCc3cc5c(cc3-4)OCO5)c(CC=C)c2)c1.[I-] : 2.8

====

tested on: A2780; experiment: Antiproliferative activity against human A2780 cells assessed as reduction in cell viability after 48 hrs by MTT assay; assay type: functional, cell-based; conditions: A2780, 48 h
EXPERIMENTAL_READOUT: IC50 (nM)
# unit: nM | format: bare number

Please review the entries below; each comes with its answer.
C=CCc1ccc(OC)c(-c2ccc(OCCCCCc3c4[n+](cc5c(OC)c(OC)ccc35)CCc3cc5c(cc3-4)OCO5)c(CC=C)c2)c1: 1170
C=CCc1ccc(OCCCCCCCCc2c3[n+](cc4c(OC)c(OC)ccc24)CCc2cc4c(cc2-3)OCO4)c(-c2ccc(O)c(CC=C)c2)c1: 1970
C=CCc1ccc(OC)c(-c2ccc(O)c(CC=C)c2)c1: 24700
C=CCc1ccc(O)c(-c2ccc(OCCCCCc3c4[n+](cc5c(OC)c(OC)ccc35)CCc3cc5c(cc3-4)OCO5)c(CC=C)c2)c1.[I-]: 2220
C=CCc1ccc(O)c(-c2ccc(OCCC)c(CC=C)c2)c1: 14700

GET /value?item= C=CCc1ccc(O)c(-c2ccc(O)c(CC=C)c2)c1 &field=IC50 returns 31600

Kindly note the recorded IC50 for C=CCc1ccc(OCCCCCc2c3[n+](cc4c(OC)c(OC)ccc24)CCc2cc4c(cc2-3)OCO4)c(-c2ccc(OCCC)c(CC=C)c2)c1 , which is 1680

Reported IC50 for C=CCc1ccc(OCCCCCc2c3[n+](cc4c(OC)c(OC)ccc24)CCc2cc4c(cc2-3)OCO4)c(-c2ccc(O)c(CC=C)c2)c1 was 1590
